These entries and their values trace back to paper PMC5540273.

system: NEK2; details: concentration: 1 μM, replicates: in singlicate; n = 1;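 also: KINOMEscan kinase panel screen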
property-measured: %Inh (%)
Kindly answer with a numeric value in %, unit omitted.

Below, 5 compounds whose answers are already recorded.
[
  {
    "compound": "Cc1cccc(Nc2nc(N[C@H]3CCNC3)ncc2C(N)=O)c1.Cl [GSK2197149]",
    "tested-on": "NEK2",
    "property-measured": "%Inh",
    "observed-result": 0
  },
  {
    "compound": "COc1cc(Nc2nccc(N3CCC(NC(=O)Nc4cccc(C(C)=O)c4)C3)n2)cc(OC)c1OC (stereo not shown) [GSK1379753]",
    "tested-on": "NEK2",
    "property-measured": "%Inh",
    "observed-result": 43
  },
  {
    "compound": "Cc1ccc(S(=O)(=O)Nc2ccc(Nc3nccc(Nc4cccc5[nH]ncc45)n3)cc2)cc1 [GSK581271]",
    "tested-on": "NEK2",
    "property-measured": "%Inh",
    "observed-result": 4
  },
  {
    "compound": "COC(=O)Nc1nc2ccc(Oc3ccc(NC(=O)Nc4cc(C(F)(F)F)ccc4F)cc3)cc2n1C.Cl [GW692089]",
    "tested-on": "NEK2",
    "property-measured": "%Inh",
    "observed-result": 0
  },
  {
    "compound": "CCn1c(-c2nonc2N)nc2c(C#CC(C)(C)O)ncc(OCCCCN)c21.O=C(O)C(F)(F)F.O=C(O)C(F)(F)F [GSK507274]",
    "tested-on": "NEK2",
    "property-measured": "%Inh",
    "observed-result": 34
  }
]

QUERY: // lookup %Inh for O=C(Nc1cccc(-c2nn3ccccc3c2-c2ccnc(Nc3cccc(F)c3)n2)c1)c1c(F)ccc(F)c1Cl [GSK357952]
RESULT: 20

====

test system: VPS34; construct: gene PIK3C3; conditions: concentration: 1 μM, replicates: in singlicate; n = 1
Listing: %Inh of selected molecules
Kindly answer with a numeric value in %, unit omitted.

QUERY: # value lookup — system VPS34, readout %Inh, item `Cn1cc(-c2[nH]c3cc(NC(=O)[C@H](N)C4CCCCC4)cc4c3c2C=NNC4=O)cn1`
RESULT: 80

====

tested on: PAK4; settings: concentration: 1 μM, replicates: in singlicate; n = 1
Kind request: treat 20% as inclusive, so %Inh at 20% or higher is class 1, anything lower is class 0.

Check out these entries, answers already filled in.
[
  {
    "mol": "O=C(Nc1ccccc1F)NC1CCN(c2ccnc(Nc3ccc(F)cc3)n2)CC1",
    "tested-on": "PAK4",
    "class-label": "class 0"
  },
  {
    "mol": "CCn1c(-c2nonc2N)nc2c(C#CC(C)(C)O)nc(OC[C@H](N)c3ccccc3)cc21",
    "tested-on": "PAK4",
    "class-label": "class 1"
  },
  {
    "mol": "O=C(Nc1cccc(Oc2ccc3nc(NC(=O)C4CC4)cn3n2)c1)c1ccccc1C(F)(F)F",
    "tested-on": "PAK4",
    "class-label": "class 0"
  },
  {
    "mol": "Nc1ncnc2c1nc(-c1ccccc1)n2-c1ccccc1",
    "tested-on": "PAK4",
    "class-label": "class 0"
  },
  {
    "mol": "CNC(=O)c1ccccc1Nc1nc(Nc2ccc(N3CCOCC3)cc2)ncc1Cl.Cl",
    "tested-on": "PAK4",
    "class-label": "class 1"
  },
  {
    "mol": "CN(C)S(=O)(=O)c1cc(-c2ccc3nccc(-c4cccc(S(N)(=O)=O)c4)c3c2)cnc1N",
    "tested-on": "PAK4",
    "class-label": "class 0"
  },
  {
    "mol": "CC(=O)Nc1nc2cnc(Nc3cc(NC(=O)c4cccc(C5(C#N)CC5)c4Cl)ccc3C)nc2s1",
    "tested-on": "PAK4",
    "class-label": "class 0"
  }
]

Next up:
QUERY: Item `COc1ccc(-c2coc3ccc(-c4nnc(SCc5ccc(OC)c(C(F)(F)F)c5)o4)cc23)cc1` with %Inh of 20% or above?
RESULT: class 0

====

Listing: %Inh of selected compounds
test system: PIM1; conditions: concentration: 1 μM, replicates: in singlicate; n = 1
Kindly answer with a numeric value in %, unit omitted.

[
  {
    "compound": "Fc1ccc(-c2ncn(C3CCNCC3)c2-c2ccnc(Oc3ccc(-c4ccccc4)cc3)n2)cc1 [SB-245391]",
    "%Inh / %": 23
  }
]

QUERY: // lookup %Inh for Cc1ccc(C)c(NC(=O)NC2CCN(c3ccnc(Nc4ccc(F)cc4)n3)C2)c1 (centres unmarked) [GSK1379720]
RESULT: 15

QUERY: // lookup %Inh for Cl.Cl.NCC(NCc1ccc(-c2ccnc3[nH]ccc23)s1)c1ccccc1 (centres unmarked) [GSK1321565]
RESULT: 17

QUERY: // lookup %Inh for CN1CCN(Cc2cccc(-c3ccc4c(Nc5ccc(Oc6ccccc6)cc5)ccnc4c3)c2)CC1 [GW578342]
RESULT: 0

QUERY: // lookup %Inh for CC(=O)N1CCN(c2ccc(Nc3nccc(-c4sc(C(C)C)nc4-c4cccc(NS(=O)(=O)c5cccc(Cl)c5)c4)n3)cn2)CC1 [GSK1660437]
RESULT: 0

QUERY: // lookup %Inh for C[C@@H]1CC[C@@H](C(=O)Nc2ccccc2)CN1c1cc(-c2ccc3c(N)n[nH]c3c2)nc(N)n1 [GSK2286062]
RESULT: 31

QUERY: // lookup %Inh for `Cc1cccc(NC(=O)Nc2ccc(Oc3ncnc4ccn(C)c34)cc2)c1`
RESULT: 0

QUERY: // lookup %Inh for FC(F)(F)c1ccc(/C=C/c2cncnc2Nc2ccc3[nH]c(Cc4ccccc4)nc3c2)cc1 [GW709199]
RESULT: 0

====

tested on: CASK; settings: concentration: 1 μM, replicates: in singlicate; n = 1
Listing: %Inh of selected compounds
Kindly answer with a numeric value in %, unit omitted.

Below, 5 compounds whose answers are already recorded.
[
  {
    "compound": "c1ccc(Oc2ccc(Nc3ccnc4cc(-c5ccc(CNCCN6CCOCC6)o5)ccc34)cc2)nc1 [GW567145]",
    "property-measured": "%Inh",
    "unit-symbol": "%",
    "observed-result": 0
  },
  {
    "compound": "Cl.c1ccc(-c2ccc3c(Nc4ccc5[nH]ncc5c4)ccnc3c2)nc1 [GW440137]",
    "property-measured": "%Inh",
    "unit-symbol": "%",
    "observed-result": 13
  },
  {
    "compound": "Cc1ccc(S(=O)(=O)Nc2ccc(Nc3nccc(Nc4cccc5[nH]ncc45)n3)cc2)cc1 [GSK581271]",
    "property-measured": "%Inh",
    "unit-symbol": "%",
    "observed-result": 45
  },
  {
    "compound": "COc1ccc(CNC(=O)NC2CCN(c3ccnc(Nc4ccc(F)cc4)n3)CC2)cc1 [GSK1379788]",
    "property-measured": "%Inh",
    "unit-symbol": "%",
    "observed-result": 0
  },
  {
    "compound": "COC(=O)Nc1nc2ccc(Oc3ccc(NC(=O)Nc4cc(C(F)(F)F)ccc4F)cc3)cc2n1C.Cl [GW692089]",
    "property-measured": "%Inh",
    "unit-symbol": "%",
    "observed-result": 1
  }
]

QUERY: // lookup %Inh for COc1cc(Nc2nccc(-c3c(-c4cccc(NC(=O)c5c(F)cccc5F)c4)nn4ncccc34)n2)cc(OC)c1OC [GSK327238]
RESULT: 14

QUERY: // lookup %Inh for CC(=O)N1CCN(c2ccc(Nc3nccc(-c4sc(C(C)C)nc4-c4cccc(NS(=O)(=O)c5cccc(Cl)c5)c4)n3)cn2)CC1 [GSK1660437]
RESULT: 0

QUERY: // lookup %Inh for O=C(Nc1n[nH]c2cc(-c3ccoc3)ccc12)C1CC1 [SB-738481]
RESULT: 0

QUERY: // lookup %Inh for CN1CCN(CCCNc2nccc(-c3c(-c4ccc(F)cc4)nn4cc(C(F)(F)F)ccc34)n2)CC1 [GW621581]
RESULT: 0

QUERY: // lookup %Inh for Cl.c1ccc(-c2ccc3c(Nc4ccc5[nH]ccc5c4)ccnc3c2)nc1 [GW440138]
RESULT: 0

QUERY: // lookup %Inh for CCn1c(-c2nonc2N)nc2c(C#CC(C)(C)O)ncc(OCCCCN)c21.O=C(O)C(F)(F)F.O=C(O)C(F)(F)F [GSK507274]
RESULT: 19

QUERY: // lookup %Inh for `COCCOCCOc1cc2ncc3c4ccc(C#N)cc4[nH]c3c2cc1OC`
RESULT: 8

QUERY: // lookup %Inh for `Cc1cccc(NC(=O)Nc2ccc(Oc3ncnc4ccn(C)c34)cc2)c1`
RESULT: 0

QUERY: // lookup %Inh for Nc1n[nH]c2cnc(-c3ccccc3)cc12 [SB-642124]
RESULT: 26

QUERY: // lookup %Inh for Cc1ccc(C(=O)Nc2ccc(Nc3ccnc4cc(-c5nccs5)ccc34)cc2O)cc1.Cl [GW494702]
RESULT: 4

QUERY: // lookup %Inh for CN(C)Cc1ccc(-c2ccc3c(Nc4ccc(Oc5ccccn5)cc4)ccnc3c2)o1 [GW567148]
RESULT: 0

QUERY: // lookup %Inh for `O=C(Nc1cccc(Oc2ccc3nc(NC(=O)C4CC4)cn3n2)c1)c1ccccc1C(F)(F)F`
RESULT: 6
